System: Mus musculus
Assay: Cardioprotective activity against DOX-induced acute heart failure DCM in ip dosed C57BL/6J mouse model assessed as improvement in the maximum descending rate of the LV pressure administered qd from day 10 post DOX-challenge measured after 50 days by echocardiography
Assay type: functional, organism-based
Active and inactive are the calls of the source. No cut-off for these calls is given here.
# output must be one of true = active, false = inactive

Record excerpt, results attached:
C[C@H](NC[C@@]1(C)CC[C@]2(C)CC[C@]3(C)C(=CC(=O)[C@@H]4[C@@]5(C)CC[C@H](O[C@H]6O[C@H](C(=O)O)[C@@H](O)[C@H](O)[C@H]6O[C@@H]6O[C@H](C(=O)O)[C@@H](O)[C@H](O)[C@H]6O)C(C)(C)[C@@H]5CC[C@]43C)[C@@H]2C1)C(=O)O true
CC1(C)[C@@H](O[C@H]2O[C@H](C(=O)O)[C@@H](O)[C@H](O)[C@H]2O[C@@H]2O[C@H](C(=O)O)[C@@H](O)[C@H](O)[C@H]2O)CC[C@]2(C)[C@H]3C(=O)C=C4[C@@H]5C[C@@](C)(CN[C@@H](CO)C(=O)O)CC[C@]5(C)CC[C@@]4(C)[C@]3(C)CC[C@@H]12 true
CC1(C)[C@@H](O[C@H]2O[C@H](C(=O)O)[C@@H](O)[C@H](O)[C@H]2O[C@@H]2O[C@H](C(=O)O)[C@@H](O)[C@H](O)[C@H]2O)CC[C@]2(C)[C@H]3C(=O)C=C4[C@@H]5C[C@@](C)(CNCC(=O)O)CC[C@]5(C)CC[C@@]4(C)[C@]3(C)CC[C@@H]12 false
CC1(C)[C@@H](O[C@H]2O[C@H](C(=O)O)[C@@H](O)[C@H](O)[C@H]2O[C@@H]2O[C@H](C(=O)O)[C@@H](O)[C@H](O)[C@H]2O)CC[C@]2(C)[C@H]3C(=O)C=C4[C@@H]5C[C@@](C)(CN[C@@H](Cc6c[nH]c7ccccc67)C(=O)O)CC[C@]5(C)CC[C@@]4(C)[C@]3(C)CC[C@@H]12 true

Field: next molecule
Write down the call the test reported for this molecule. Item: `CC1(C)[C@@H](O[C@H]2O[C@H](C(=O)O)[C@@H](O)[C@H](O)[C@H]2O[C@@H]2O[C@H](C(=O)O)[C@@H](O)[C@H](O)[C@H]2O)CC[C@]2(C)[C@H]3C(=O)C=C4[C@@H]5C[C@@](C)(CN[C@@H](CCC(=O)O)C(=O)O)CC[C@]5(C)CC[C@@]4(C)[C@]3(C)CC[C@@H]12`
true

* * *

System: Mus musculus
Assay: Cardioprotective activity against DOX-induced acute heart failure DCM in ip dosed C57BL/6J mouse model assessed as increase in survival rate administered qd from day 10 post DOX-challenge measured after 50 days by echocardiography
Format: functional, organism-based
The source made the active and inactive calls. The rule behind the calls is not given here.
Tick one outcome: active, inactive

Solved entries:
CC1(C)[C@@H](O[C@H]2O[C@H](C(=O)O)[C@@H](O)[C@H](O)[C@H]2O[C@@H]2O[C@H](C(=O)O)[C@@H](O)[C@H](O)[C@H]2O)CC[C@]2(C)[C@H]3C(=O)C=C4[C@@H]5C[C@@](C)(CN[C@@H](CCC(=O)O)C(=O)O)CC[C@]5(C)CC[C@@]4(C)[C@]3(C)CC[C@@H]12 active
CC1(C)[C@@H](O[C@H]2O[C@H](C(=O)O)[C@@H](O)[C@H](O)[C@H]2O[C@@H]2O[C@H](C(=O)O)[C@@H](O)[C@H](O)[C@H]2O)CC[C@]2(C)[C@H]3C(=O)C=C4[C@@H]5C[C@@](C)(CN[C@@H](Cc6c[nH]c7ccccc67)C(=O)O)CC[C@]5(C)CC[C@@]4(C)[C@]3(C)CC[C@@H]12 active
CC1(C)[C@@H](O[C@H]2O[C@H](C(=O)O)[C@@H](O)[C@H](O)[C@H]2O[C@@H]2O[C@H](C(=O)O)[C@@H](O)[C@H](O)[C@H]2O)CC[C@]2(C)[C@H]3C(=O)C=C4[C@@H]5C[C@@](C)(CN[C@@H](CO)C(=O)O)CC[C@]5(C)CC[C@@]4(C)[C@]3(C)CC[C@@H]12 active
CC1(C)[C@@H](O[C@H]2O[C@H](C(=O)O)[C@@H](O)[C@H](O)[C@H]2O[C@@H]2O[C@H](C(=O)O)[C@@H](O)[C@H](O)[C@H]2O)CC[C@]2(C)[C@H]3C(=O)C=C4[C@@H]5C[C@@](C)(CNCC(=O)O)CC[C@]5(C)CC[C@@]4(C)[C@]3(C)CC[C@@H]12 inactive
C[C@H](NC[C@@]1(C)CC[C@]2(C)CC[C@]3(C)C(=CC(=O)[C@@H]4[C@@]5(C)CC[C@H](O[C@H]6O[C@H](C(=O)O)[C@@H](O)[C@H](O)[C@H]6O[C@@H]6O[C@H](C(=O)O)[C@@H](O)[C@H](O)[C@H]6O)C(C)(C)[C@@H]5CC[C@]43C)[C@@H]2C1)C(=O)O inactive

What did this assay record as the result for `CC1(C)[C@@H](O[C@H]2O[C@H](C(=O)O)[C@@H](O)[C@H](O)[C@H]2O[C@@H]2O[C@H](C(=O)O)[C@@H](O)[C@H](O)[C@H]2O)CC[C@]2(C)[C@H]3C(=O)C=C4[C@@H]5C[C@@](C)(CN[C@@H](CC(=O)O)C(=O)O)CC[C@]5(C)CC[C@@]4(C)[C@]3(C)CC[C@@H]12` ?
active

* * *

Reported ED50 values for a set of molecules
Molecular target: High mobility group protein B1 (Mus musculus) (UniProt P63158)
Sequence (whole entry): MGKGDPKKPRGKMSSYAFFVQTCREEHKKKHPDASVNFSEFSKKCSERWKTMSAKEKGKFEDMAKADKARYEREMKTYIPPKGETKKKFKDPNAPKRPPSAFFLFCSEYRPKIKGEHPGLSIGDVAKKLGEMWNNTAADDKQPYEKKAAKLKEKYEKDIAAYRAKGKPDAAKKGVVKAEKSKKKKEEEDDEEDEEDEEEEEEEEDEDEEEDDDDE
Assay: Inhibition of HMGB1 in mouse RAW264.7 cells assessed as LPS-induced TNFalpha release treated for 2 hrs prior to LPS-challenge measured after 16 hrs by ELISA
Type: cell-based
Only the number, expressed in µM, is required.

Solved entries (count: 5):
CC1(C)[C@@H](O[C@H]2O[C@H](C(=O)O)[C@@H](O)[C@H](O)[C@H]2O[C@@H]2O[C@H](C(=O)O)[C@@H](O)[C@H](O)[C@H]2O)CC[C@]2(C)[C@H]3C(=O)C=C4[C@@H]5C[C@@](C)(C(=O)O)CC[C@]5(C)CC[C@@]4(C)[C@]3(C)CC[C@@H]12 70
CCCNC[C@@]1(C)CC[C@]2(C)CC[C@]3(C)C(=CC(=O)[C@@H]4[C@@]5(C)CC[C@H](O[C@H]6O[C@H](C(=O)O)[C@@H](O)[C@H](O)[C@H]6O[C@@H]6O[C@H](C(=O)O)[C@@H](O)[C@H](O)[C@H]6O)C(C)(C)[C@@H]5CC[C@]43C)[C@@H]2C1 226
CC1(C)[C@@H](O[C@H]2O[C@H](C(=O)O)[C@@H](O)[C@H](O)[C@H]2O[C@@H]2O[C@H](C(=O)O)[C@@H](O)[C@H](O)[C@H]2O)CC[C@]2(C)[C@H]3C(=O)C=C4[C@@H]5C[C@@](C)(CNC6CCCCC6)CC[C@]5(C)CC[C@@]4(C)[C@]3(C)CC[C@@H]12 193
C[C@H](NC[C@@]1(C)CC[C@]2(C)CC[C@]3(C)C(=CC(=O)[C@@H]4[C@@]5(C)CC[C@H](O[C@H]6O[C@H](C(=O)O)[C@@H](O)[C@H](O)[C@H]6O[C@@H]6O[C@H](C(=O)O)[C@@H](O)[C@H](O)[C@H]6O)C(C)(C)[C@@H]5CC[C@]43C)[C@@H]2C1)C(=O)O 337
CC1(C)[C@@H](O[C@H]2O[C@H](C(=O)O)[C@@H](O)[C@H](O)[C@H]2O[C@@H]2O[C@H](C(=O)O)[C@@H](O)[C@H](O)[C@H]2O)CC[C@]2(C)[C@H]3C(=O)C=C4[C@@H]5C[C@@](C)(CN[C@@H](CO)C(=O)O)CC[C@]5(C)CC[C@@]4(C)[C@]3(C)CC[C@@H]12 161

Tell me the measured ED50 of `CC1(C)[C@@H](O[C@H]2O[C@H](C(=O)O)[C@@H](O)[C@H](O)[C@H]2O[C@@H]2O[C@H](C(=O)O)[C@@H](O)[C@H](O)[C@H]2O)CC[C@]2(C)[C@H]3C(=O)C=C4[C@@H]5C[C@@](C)(CN[C@@H](CC(=O)O)C(=O)O)CC[C@]5(C)CC[C@@]4(C)[C@]3(C)CC[C@@H]12` , please.
144

Would you mind doing `CC1(C)[C@@H](O[C@H]2O[C@H](C(=O)O)[C@@H](O)[C@H](O)[C@H]2O[C@@H]2O[C@H](C(=O)O)[C@@H](O)[C@H](O)[C@H]2O)CC[C@]2(C)[C@H]3C(=O)C=C4[C@@H]5C[C@@](C)(CN[C@@H](Cc6c[nH]c7ccccc67)C(=O)O)CC[C@]5(C)CC[C@@]4(C)[C@]3(C)CC[C@@H]12` as well?
144

Please give the result for `CC1(C)[C@@H](O[C@H]2O[C@H](C(=O)O)[C@@H](O)[C@H](O)[C@H]2O[C@@H]2O[C@H](C(=O)O)[C@@H](O)[C@H](O)[C@H]2O)CC[C@]2(C)[C@H]3C(=O)C=C4[C@@H]5C[C@@](C)(CN[C@@H](CCC(=O)O)C(=O)O)CC[C@]5(C)CC[C@@]4(C)[C@]3(C)CC[C@@H]12` too.
141
